- Species on record: Rattus norvegicus
- Assay: Open TG-GATES - Regimen: Daily Repeat
- Type: toxicity, organism-based, Sprague-Dawley
- Parameters: regimen Daily Repeat, gender Male, age 6 weeks
- Settings: in vivo, po, 0 mg/kg, […], tissue Blood, route gavage, dose level Control, time 7 day
Recorded Endpoint: Lym (%)

| Molecule | Value Measured |
| --- | --- |
| CCCCNC(=O)NS(=O)(=O)c1ccc(C)cc1 [TOLBUTAMIDE] | 80 |
| CCO [ALCOHOL] | 84.2 |
| CN(CCOc1ccc(CC2SC(=O)NC2=O)cc1)c1ccccn1.O=C(O)/C=C\C(=O)O (stereo not drawn) [ROSIGLITAZONE MALEATE] | 82 |

Values from ChEMBL document CHEMBL3885861
